Data origin: PubChem BioAssay (NCI)

Hi there, I'd appreciate the recorded TGI for every entry that follows.
System: NCI-H23 lung
testName: NCI tumour cell line growth inhibition, 48 h

1) CNC(=O)c1cccc(-c2ccc3c(N4CCOC[C@@H]4C)nc(N4CCOC[C@@H]4C)nc3n2)c1; > 100 µM
2) O=C1CCC2SC1CCC2=O; > 100 µM
3) COc1ccc(/C=C\c2cc(OC)c(OC)c(OC)c2)cc1OCC(=O)Nc1nc2ccc(C(F)(F)F)cc2s1; > 100 µM
4) C[C@]12CC(c3ccccc3O1)C(C(=O)NC13CC4CC(CC(C4)C1)C3)C(=O)N2 (some centres undefined); 61.9 µM
5) COc1cc2cc(C(=O)N3CC(CCl)c4ccc(NCCN)cc43)[nH]c2c(OC)c1OC (centres undefined); 1.23 µM
6) O=C(O)CN1CCN(CC(=O)O)CCN(CC(=O)O)CCN(CC(=O)O)CC1; > 100 µM
7) Cc1cc2c(F)c(Oc3ncnn4cc(OC[C@@H](C)OC(=O)[C@H](C)N)c(C)c34)ccc2[nH]1; 25.9 µM
8) Nc1ccccc1C#C/C=C\C#Cc1ccc(Cl)cc1Cl; 31.5 µM
9) CC(c1cccc2ccccc12)/[N+]([O-])=C/c1ccccc1 (centres undefined); > 100 µM
10) O=C(Cc1ccccc1)c1ccc2[nH]c(=O)oc2c1; > 100 µM

# batch size: 2; output TGI per entry
1. COC(=O)c1nc(NC#N)[nH]c(=O)c1C
2. C=CCOCn1ccc(=O)[nH]c1=O

["> 100 µM", "> 100 µM"]

# batch size: 5; output TGI per entry
1. S=C(Nc1ccc(Cl)cc1)Nc1ccc(Cl)cc1 (tested in a mixture with another compound)
2. CC(=O)OCC1OC(O[C@@H]2c3c(O)c4c(c(O)c3C3=C(NN(c5ccc([N+](=O)[O-])cc5[N+](=O)[O-])[Se]3=O)[C@@]2(C)O)C(=O)c2ccccc2C4=O)C(OC(C)=O)C(OC(C)=O)C1OC(C)=O (some centres undefined)
3. COC12C=CC(CC1)C1C(=O)c3c(C)c(C)n(C)c3C(=O)C12 (centres undefined)
4. COC(=O)N/N=C/c1oc(-c2cccc([N+](=O)[O-])c2)c(-c2cccc([N+](=O)[O-])c2)c1[N+](=O)[O-]
5. CCOC(=O)Oc1c(OC)cc(C(=O)O[C@@H]2C[C@@H]3CN4CCc5c([nH]c6cc(OC)ccc56)[C@H]4C[C@@H]3[C@H](C(=O)OC)[C@H]2OC)cc1OC

["6.05 µM", "0.698 µM", "> 100 µM", "> 100 µM", "21.8 µM"]

# batch size: 2; output TGI per entry
1. CCOP(=O)(OCC)/C(C#N)=C/c1ccco1
2. O=S1(=O)C[C@@H](O)[C@H](O)CS1

> 100 µM
> 100 µM

----------
Tested on: HCT-116 colon
testName: NCI tumour cell line growth inhibition, 48 h
Hi there, I'd appreciate the recorded GI50 for every entry that follows.

1. COc1cc2c(/C=C3/C(=O)Nc4ccccc43)c(Cl)n(Cc3ccccc3[N+](=O)[O-])c2cc1C; 2.71 µM
2. OCCCCC#Cc1ccccc1C#Cc1ccccc1C(F)(F)F; 6.46 µM
3. COC(=O)/C(=C\c1c(C)[nH]c2ccccc12)S(=O)(=O)c1ccccc1; 3.8 µM

# batch size: 2; output GI50 per entry
1. CC[N+](CC)(CC)CCCn1c2c(c3ccccc3c1=O)C(=O)c1ccccc1-2
2. COc1nc(C)cc2c(=O)n(-c3ccccc3)n(CCCN3CCN(c4ccc(Cl)cc4)CC3)c(=O)c12

1: 1.95 µM; 2: 27.5 µM
